The reported measurements were obtained from patent US20240368135A1.

# Tgt: human NaV 1.8 (Homo sapiens)
# Method notes: E-VIPR assay detecting and measuring NaV inhibition properties
# Type: cell-based
# Measurement context: HEK cells expressing truncated human NaV 1.8; no human serum; read-out: IC50 in the E-VIPR Assay
pIC50: −log10 of the molar value.

[
  {
    "Compound": "CCOc1c([C@H]2[C@H](C(=O)Nc3cncc(S(C)(=O)=O)c3)O[C@@](C)(C(F)(F)F)[C@H]2C)ccc(F)c1F (stereo in doubt)",
    "pIC50": "> 8.00"
  },
  {
    "Compound": "Cc1nn(C(F)F)cc1NC(=O)[C@@H]1O[C@@](C)(C(F)(F)F)[C@@H](C)[C@H]1c1ccc(F)c(F)c1OCC(N)=O",
    "pIC50": "7.00 to 8.00"
  },
  {
    "Compound": "COc1c(C2C(C(=O)Nc3ccnc(S(C)(=O)=O)c3)OC(C)(C(F)(F)F)C2C)ccc(F)c1F (single isomer, unassigned)",
    "pIC50": "> 8.00"
  },
  {
    "Compound": "COc1c([C@H]2[C@H](C(=O)Nc3ccnc(N4C[C@H]5C[C@H](N5)C4=O)c3)O[C@@](C)(C(F)(F)F)[C@H]2C)ccc(F)c1F (single isomer, unassigned)",
    "pIC50": "7.00 to 8.00"
  },
  {
    "Compound": "COc1c([C@H]2[C@H](C(=O)NCc3ccc4ncccc4c3)O[C@@](C)(C(F)(F)F)[C@H]2C)ccc(F)c1F",
    "pIC50": "≤ 6.00"
  },
  {
    "Compound": "COc1c([C@H]2[C@H](C(=O)Nc3cc(C(O)CN4CCOCC4)ncc3F)O[C@@](C)(C(F)(F)F)[C@H]2C)ccc(F)c1F (single isomer, unassigned)",
    "pIC50": "7.00 to 8.00"
  },
  {
    "Compound": "CCOc1c([C@H]2[C@H](C(=O)Nc3ccnc(S(C)(=N)=O)c3)O[C@@](C)(C(F)(F)F)[C@H]2C)ccc(F)c1C (relative stereo) [Compound 125]",
    "pIC50": "> 8.00"
  },
  {
    "Compound": "C[C@@H]1[C@H](c2ccc(F)c(F)c2OC(F)F)[C@@H](C(=O)Nc2ccnc(C(O)CO)c2)O[C@]1(C)C(F)(F)F (single isomer, unassigned)",
    "pIC50": "6.00 to 7.00"
  },
  {
    "Compound": "Cc1nn(C(F)F)cc1NC(=O)[C@@H]1O[C@@](C)(C(F)(F)F)[C@@H](C)[C@H]1c1ccc(F)c(F)c1CO",
    "pIC50": "7.00 to 8.00"
  },
  {
    "Compound": "COc1c([C@H]2[C@H](C(=O)Nc3ncco3)O[C@@](C)(C(F)(F)F)[C@H]2C)ccc(F)c1F",
    "pIC50": "> 8.00"
  },
  {
    "Compound": "COc1c([C@H]2[C@H](C(=O)NC3CN(S(C)(=O)=O)C3)O[C@@](C)(C(F)(F)F)[C@H]2C)ccc(F)c1F",
    "pIC50": "≤ 6.00"
  },
  {
    "Compound": "COCC(N)c1cc(NC(=O)[C@@H]2O[C@@](C)(C(F)(F)F)[C@@H](C)[C@H]2c2ccc(F)c(F)c2OC)ncn1 (single isomer, unassigned)",
    "pIC50": "7.00 to 8.00"
  }
]

---

# Tgt: human NaV 1.8 (Homo sapiens)
# Method notes: E-VIPR assay detecting and measuring NaV inhibition properties
# Format: cell-based
# Measurement context: HEK cells expressing truncated human NaV 1.8; no human serum; read-out: IC50 in the E-VIPR Assay
pIC50: −log10 of the molar value. Structures can show the parent of a compound that is named as a salt.

[
  {
    "Compound": "CN=S(C)(=O)c1cc(NC(=O)C2OC(C)(C(F)(F)F)C(C)C2c2ccc(F)c(F)c2OC)ccn1 (single isomer, unassigned) [Compound 529]",
    "pIC50": "6.00 to 7.00"
  },
  {
    "Compound": "COc1c([C@H]2[C@H](C(=O)Nc3cc(C4(N)COC4)ncc3F)O[C@@](C)(C(F)(F)F)[C@H]2C)ccc(F)c1F",
    "pIC50": "> 8.00"
  },
  {
    "Compound": "COc1c([C@H]2[C@H](C(=O)Nc3cnnc(C(C)(C)O)c3)O[C@@](C)(C(F)(F)F)[C@H]2C)ccc(F)c1F",
    "pIC50": "> 8.00"
  },
  {
    "Compound": "C[C@H]1[C@@H](c2ccc(F)c(F)c2OCC2COC2)[C@H](C(=O)Nc2ccc(C(C)(C)O)nc2)O[C@@]1(C)C(F)(F)F [Compound 581, (TFA salt)]",
    "pIC50": "6.00 to 7.00"
  },
  {
    "Compound": "COc1c([C@H]2[C@H](C(=O)NCC3COC(C)(C)C3)O[C@@](C)(C(F)(F)F)[C@H]2C)ccc(F)c1F (stereo partly drawn)",
    "pIC50": "≤ 6.00"
  },
  {
    "Compound": "COc1c([C@H]2[C@H](C(=O)Nc3ccnc(S(C)(=N)=O)c3)O[C@@](C)(C(F)(F)F)[C@H]2C)ccc(F)c1C (relative stereo)",
    "pIC50": "> 8.00"
  },
  {
    "Compound": "COc1c([C@H]2[C@H](C(=O)Nc3ccnc(C(CO)N(C)C)c3)O[C@@](C)(C(F)(F)F)[C@H]2C)ccc(F)c1F (single isomer, unassigned) [Compound 368]",
    "pIC50": "> 8.00"
  },
  {
    "Compound": "COc1c([C@H]2[C@H](C(=O)NCC3CC3)O[C@@](C)(C(F)(F)F)[C@H]2C)ccc(F)c1F",
    "pIC50": "6.00 to 7.00"
  },
  {
    "Compound": "COc1ccc(NC(=O)[C@@H]2O[C@@](C)(C(F)(F)F)[C@@H](C)[C@H]2c2ccc(F)c(C(F)F)c2OC)cn1 (single isomer, unassigned)",
    "pIC50": "7.00 to 8.00"
  },
  {
    "Compound": "Cc1nn(C)cc1NC(=O)[C@@H]1O[C@@](C)(C(F)(F)F)[C@@H](C)[C@H]1c1ccc(F)c(F)c1OCCO",
    "pIC50": "7.00 to 8.00"
  },
  {
    "Compound": "COc1c([C@H]2[C@H](C(=O)Nc3ccnc(S(=O)(=O)N(C)C)c3)O[C@@](C)(C(F)(F)F)[C@H]2C)ccc(F)c1F (stereo in doubt)",
    "pIC50": "> 8.00"
  },
  {
    "Compound": "COc1c([C@H]2[C@H](C(=O)Nc3ccnc(O[C@H]4COC[C@H]4O)c3)O[C@@](C)(C(F)(F)F)[C@H]2C)ccc(F)c1F (single isomer, unassigned)",
    "pIC50": "> 8.00"
  }
]

---

# Tgt: human NaV 1.8 (Homo sapiens)
# Method notes: E-VIPR assay detecting and measuring NaV inhibition properties
# Assay type: cell-based
# Measurement context: HEK cells expressing truncated human NaV 1.8; no human serum; read-out: IC50 in the E-VIPR Assay
pIC50: −log10 of the molar value.

[
  {
    "Compound": "Cc1nn(C(F)F)cc1NC(=O)[C@@H]1O[C@@](C)(C(F)(F)F)[C@@H](C)[C@H]1c1ccc(F)c(F)c1OCC(=O)N(C)O [Compound 604]",
    "pIC50": "6.00 to 7.00"
  },
  {
    "Compound": "C[C@H]1[C@@H](c2ccc(F)c(F)c2OCCO)[C@H](C(=O)Nc2ccnc(CO)c2)O[C@@]1(C)C(F)(F)F [Compound 537]",
    "pIC50": "> 8.00"
  },
  {
    "Compound": "C[C@H]1[C@@H](c2ccc(F)c(F)c2OC(F)F)[C@H](C(=O)Nc2ccnc(N3CCNCC3=O)c2)O[C@@]1(C)C(F)(F)F [Compound 514]",
    "pIC50": "7.00 to 8.00"
  }
]

---

# Tgt: human NaV 1.8 (Homo sapiens, UniProt Q9Y5Y9)
# Sequence (Q9Y5Y9 126-399 limits assumed): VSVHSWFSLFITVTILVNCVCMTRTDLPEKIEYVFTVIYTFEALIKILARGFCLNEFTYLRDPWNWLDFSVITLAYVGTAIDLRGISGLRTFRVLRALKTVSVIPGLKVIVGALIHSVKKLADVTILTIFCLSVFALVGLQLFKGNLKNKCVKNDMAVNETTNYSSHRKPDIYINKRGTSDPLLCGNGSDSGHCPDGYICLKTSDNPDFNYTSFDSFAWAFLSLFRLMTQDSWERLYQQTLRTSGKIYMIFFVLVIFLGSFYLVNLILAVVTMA
# Sequence (Q9Y5Y9 660-890 limits assumed): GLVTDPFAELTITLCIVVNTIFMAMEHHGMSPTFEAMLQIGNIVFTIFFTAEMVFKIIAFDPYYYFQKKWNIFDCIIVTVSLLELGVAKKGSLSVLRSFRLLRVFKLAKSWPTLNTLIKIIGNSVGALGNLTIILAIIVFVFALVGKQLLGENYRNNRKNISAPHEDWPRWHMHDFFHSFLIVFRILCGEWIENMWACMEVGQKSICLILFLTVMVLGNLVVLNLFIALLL
# Sequence (Q9Y5Y9 1148-1722 limits assumed): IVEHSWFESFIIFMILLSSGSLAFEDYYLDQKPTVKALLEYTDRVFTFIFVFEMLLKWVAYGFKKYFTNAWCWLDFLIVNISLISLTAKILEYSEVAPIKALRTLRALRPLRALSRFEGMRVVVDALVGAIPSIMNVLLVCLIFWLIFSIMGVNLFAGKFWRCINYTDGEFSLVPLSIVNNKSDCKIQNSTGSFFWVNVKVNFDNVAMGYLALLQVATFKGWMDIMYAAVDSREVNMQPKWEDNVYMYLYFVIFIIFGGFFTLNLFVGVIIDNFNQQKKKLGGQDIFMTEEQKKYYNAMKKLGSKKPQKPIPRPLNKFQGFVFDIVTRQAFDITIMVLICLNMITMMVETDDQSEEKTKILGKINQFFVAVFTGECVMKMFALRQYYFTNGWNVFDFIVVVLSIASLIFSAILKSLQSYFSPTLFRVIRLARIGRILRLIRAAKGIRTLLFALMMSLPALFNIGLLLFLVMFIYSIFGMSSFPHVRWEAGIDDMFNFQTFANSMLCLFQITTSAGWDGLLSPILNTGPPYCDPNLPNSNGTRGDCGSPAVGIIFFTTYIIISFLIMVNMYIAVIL
# Method notes: E-VIPR assay detecting and measuring NaV inhibition properties
# Type: cell-based
# Measurement context: HEK cells expressing truncated human NaV 1.8; no human serum; read-out: IC50 in the E-VIPR Assay
Outcome measure: IC50

[
  {
    "Molecule": "COc1c([C@H]2[C@H](C(=O)Nc3cc(C[C@H](O)CO)n(C)n3)O[C@@](C)(C(F)(F)F)[C@H]2C)ccc(F)c1F",
    "Outcome measure": "IC50",
    "Result": "10 to 100 nM"
  },
  {
    "Molecule": "COc1c([C@H]2[C@H](C(=O)Nc3cnc4c(c3)CCC4O)O[C@@](C)(C(F)(F)F)[C@H]2C)ccc(F)c1F (single isomer, unassigned) [Compound 17]",
    "Outcome measure": "IC50",
    "Result": "10 to 100 nM"
  },
  {
    "Molecule": "COc1c([C@H]2[C@H](C(=O)NCC(C)N3CCN(C)CC3)O[C@@](C)(C(F)(F)F)[C@H]2C)ccc(F)c1F (stereo partly drawn)",
    "Outcome measure": "IC50",
    "Result": "≥ 1000 nM"
  },
  {
    "Molecule": "COc1c([C@H]2[C@H](C(=O)Nc3cc(C(O)CCO)ncc3F)O[C@@](C)(C(F)(F)F)[C@H]2C)ccc(F)c1F (single isomer, unassigned)",
    "Outcome measure": "IC50",
    "Result": "< 10 nM"
  },
  {
    "Molecule": "COc1c([C@H]2[C@H](C(=O)Nc3ccnc([C@@H](O)[C@H](C)O)c3)O[C@@](C)(C(F)(F)F)[C@H]2C)ccc(F)c1F (single isomer, unassigned)",
    "Outcome measure": "IC50",
    "Result": "< 10 nM"
  },
  {
    "Molecule": "Cc1nn(C(F)F)cc1NC(=O)[C@@H]1O[C@@](C)(C(F)(F)F)[C@@H](C)[C@H]1c1ccc(F)c(F)c1OCCO",
    "Outcome measure": "IC50",
    "Result": "< 10 nM"
  },
  {
    "Molecule": "COc1c([C@H]2[C@H](C(=O)Nc3ccnc(N4CCC[C@@H]4CO)c3)O[C@@](C)(C(F)(F)F)[C@H]2C)ccc(F)c1F",
    "Outcome measure": "IC50",
    "Result": "10 to 100 nM"
  },
  {
    "Molecule": "COc1c([C@H]2[C@H](C(=O)Nc3cc(CO)ncn3)O[C@@](C)(C(F)(F)F)[C@H]2C)ccc(F)c1F",
    "Outcome measure": "IC50",
    "Result": "< 10 nM"
  },
  {
    "Molecule": "COc1c([C@H]2[C@H](C(=O)Nc3cncc(N4C(=O)CN(C)C[C@H]4C)c3)O[C@@](C)(C(F)(F)F)[C@H]2C)ccc(F)c1F",
    "Outcome measure": "IC50",
    "Result": "10 to 100 nM"
  },
  {
    "Molecule": "COc1c([C@H]2[C@H](C(=O)Nc3cncn3C)O[C@@](C)(C(F)(F)F)[C@H]2C)ccc(F)c1F",
    "Outcome measure": "IC50",
    "Result": "10 to 100 nM"
  },
  {
    "Molecule": "COCc1c(F)ccc([C@H]2[C@H](C(=O)Nc3ccc(C(N)=O)nc3)O[C@@](C)(C(F)(F)F)[C@H]2C)c1OC (stereo in doubt)",
    "Outcome measure": "IC50",
    "Result": "10 to 100 nM"
  },
  {
    "Molecule": "Cc1nn(CCO)cc1NC(=O)[C@H]1O[C@](C)(C(F)(F)F)[C@H](C)[C@@H]1c1ccc(F)c(F)c1OC(F)F (single isomer, unassigned)",
    "Outcome measure": "IC50",
    "Result": "≥ 1000 nM"
  }
]
